Hello, the source for this data is patent US20220370464A1, in case you need it.

- Test system: AdV64
- protocol.details: Plaque reduction antiviral IC50 assay in A549, AdV64
- Format: cell-based, adenovirus 19/64
- condition.info: unidentified adenovirus, read-out: Median IC50
Recorded pIC50 for the following compounds
Entry type: numeric. Quantity: pIC50, the -log10 of concentration in molar units.

compound | recorded.number
Nc1nc2c(ncn2/C=C2/CC2(CO)CO)c(=O)[nH]1 | 6.37

Moving on to the next compound.
So what pIC50 did Nc1ccn(C[C@@H](CO)OCP(=O)(O)O)c(=O)n1 [CDV, cidofovir, reference compound] get with AdV64?
5.31

---

- Test system: AdV8
- protocol.details: Plaque reduction antiviral IC50 assay in A549, AdV8
- Format: cell-based, adenovirus 8
- condition.info: read-out: Mean IC50
Reported IC50 by item:
# value in nM; strip the unit string

compound | test.system | IC50 [nM]
Nc1nc2c(ncn2/C=C2/CC2(CO)CO)c(=O)[nH]1 [Filociclovir] | AdV8 | 496

Next, consider the following compound.
Find the recorded IC50 belonging to Nc1ccn(C[C@@H](CO)OCP(=O)(O)O)c(=O)n1 [CDV, cidofovir, reference compound] and report it.
487

---

In this section, each of the compounds is paired with its reported CC50.
- Test system: human foreskin fibroblast (HFF) cells
- protocol.details: Cytotoxicity, CellTiter-Glo cell viability in HFF cells
- condition.info: HFF cells, 384-well; average and SD from five independent experiments
- Text: Human foreskin tissue was obtained from the University of Alabama at Birmingham tissue procurement facility with approval from the Institutional Review Board. […] The culture medium was then replaced with fresh medium and condition of the cells was monitored daily until a confluent cell monolayer was formed. […]
Your answer is read as µM, so omit the unit and give the number.

sample.smiles | test.system | CC50 (µM)
O=c1[nH]c(=S)c(I)cn1[C@H]1C[C@H](O)[C@@H](CO)O1 | human foreskin fibroblast (HFF) cells | 26

Look up CC50 for this compound: `Cc1cn([C@H]2C[C@H](O)[C@]3(CO)C[C@H]23)c(=O)[nH]c1=O`
72

// returns reported CC50 for input `OC[C@H]1O[C@@H](n2c(Br)nc3cc(Cl)c(Cl)cc32)[C@H](O)[C@@H]1O`
91

---

- Test system: AdV5
- protocol.details: Plaque reduction antiviral IC50 assay in A549, AdV5
- Assay type: cell-based, adenovirus 5
- condition.info: Human mastadenovirus C, read-out: Mean IC50
quantity.measured: pIC50
API: returns pIC50 as number; meaning -log10 of concentration in mol/L.

compound | pIC50
Nc1nc2c(ncn2/C=C2/CC2(CO)CO)c(=O)[nH]1 | 5.33

Now turn to the next compound.
Name the reported pIC50 value associated with the compound Nc1ccn(C[C@@H](CO)OCP(=O)(O)O)c(=O)n1 [CDV, cidofovir, reference compound]
4.52
